Molecular target: AKR1C3 (Homo sapiens (Human), UniProt P42330)
Sequence (P42330 whole entry): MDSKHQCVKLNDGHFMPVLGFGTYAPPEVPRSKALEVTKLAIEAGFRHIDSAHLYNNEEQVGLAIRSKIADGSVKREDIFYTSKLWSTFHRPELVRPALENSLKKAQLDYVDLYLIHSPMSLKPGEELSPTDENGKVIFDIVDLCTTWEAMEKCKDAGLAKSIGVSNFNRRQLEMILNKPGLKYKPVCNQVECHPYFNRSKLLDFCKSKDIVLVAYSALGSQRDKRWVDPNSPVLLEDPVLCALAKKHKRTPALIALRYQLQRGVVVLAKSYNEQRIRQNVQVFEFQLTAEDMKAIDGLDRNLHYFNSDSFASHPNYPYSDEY
Assay: Inhibition of AKR1C3 catalyzed reduction of Δ4-androstene-3,17-dione to testosterone
Format: biochemical
Details: Δ4-androstene-3,17-dione as substrate
pKi: −log10 of the molar value.

>  <MOLECULAR_STRING>
O=C(O)c1cccc(Nc2ccc([N+](=O)[O-])c3ccccc23)c1

>  <pKi>
5.61

$$$$

----------
Target: AKR1C3 (Homo sapiens (Human), UniProt P42330)
Assay: Inhibition of NADP+ dependent oxidation of S-tetralol by recombinant AKR1C3
Assay type: biochemical
Details: S-tetralol as substrate

>  <MOLECULAR_STRING>
O=C(O)c1cccc(Nc2ccc([N+](=O)[O-])c3ccccc23)c1

>  <UNITS_SYMBOL>
nM

>  <Ki>
58.2

$$$$

----------
Biological target: AKR1C3 (Homo sapiens (Human), UniProt P42330)
Assay: Inhibition of NADP+ dependent oxidation of S-tetralol by recombinant AKR1C3
Details: S-tetralol oxidation, substrate at KM

>  <COMPOUND>
O=C(O)c1cccc(Nc2ccccc2)c1 [Compound 3, 3-Phenylamino benzoic acid]

>  <UNITS_SYMBOL>
µM

>  <IC50>
0.94

$$$$
>  <COMPOUND>
O=C(O)c1ccccc1Nc1cccc(C(F)(F)F)c1 [Compound 1, Flufenamic Acid, reference compound]

>  <UNITS_SYMBOL>
µM

>  <IC50>
0.05

$$$$
>  <COMPOUND>
O=C(O)c1cccc(Nc2ccc([N+](=O)[O-])c3ccccc23)c1 [Compound 13]

>  <UNITS_SYMBOL>
µM

>  <IC50>
0.075

$$$$
>  <COMPOUND>
O=C(O)c1cccc(Nc2ccc([N+](=O)[O-])cc2)c1 [Compound 5, 3-[N-(4-nitrophenyl)amino]benzoic acid]

>  <UNITS_SYMBOL>
µM

>  <IC50>
0.036

$$$$
